# assay target: 17-beta-hydroxysteroid dehydrogenase type 1 (Homo sapiens)
# Sequence (P14061 whole entry): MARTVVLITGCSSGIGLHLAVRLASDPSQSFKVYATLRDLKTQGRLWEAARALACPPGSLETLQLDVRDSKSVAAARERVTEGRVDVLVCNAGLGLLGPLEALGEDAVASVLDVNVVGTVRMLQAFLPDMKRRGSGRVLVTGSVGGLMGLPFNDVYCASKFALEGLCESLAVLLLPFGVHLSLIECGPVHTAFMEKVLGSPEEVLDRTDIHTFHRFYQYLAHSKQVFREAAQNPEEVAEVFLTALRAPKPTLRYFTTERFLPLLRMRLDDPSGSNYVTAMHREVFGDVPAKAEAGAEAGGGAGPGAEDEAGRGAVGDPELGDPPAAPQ
# method summary: Inhibition of 17beta-HSD1 expressed in HEK 293 cells assessed as conversion of [14C]estrone to [14C]estradiol using NADPH
pIC50: −log10 of the molar value.

>  <chem smiles>
C[C@]12CC[C@@H]3c4ccc(O)cc4CC[C@H]3[C@@H]1C[C@H](CCCCCCCCC(=O)OC[C@H]1O[C@@H](n3cnc4c(N)ncnc43)[C@H](O)[C@@H]1O)[C@@H]2O

>  <pIC50>
8.10

$$$$

The values you see were collected from ChEMBL document CHEMBL1154469.
